# tested system: CCR2 (Homo sapiens (Human), UniProt P41597)
# Sequence (P41597 whole entry): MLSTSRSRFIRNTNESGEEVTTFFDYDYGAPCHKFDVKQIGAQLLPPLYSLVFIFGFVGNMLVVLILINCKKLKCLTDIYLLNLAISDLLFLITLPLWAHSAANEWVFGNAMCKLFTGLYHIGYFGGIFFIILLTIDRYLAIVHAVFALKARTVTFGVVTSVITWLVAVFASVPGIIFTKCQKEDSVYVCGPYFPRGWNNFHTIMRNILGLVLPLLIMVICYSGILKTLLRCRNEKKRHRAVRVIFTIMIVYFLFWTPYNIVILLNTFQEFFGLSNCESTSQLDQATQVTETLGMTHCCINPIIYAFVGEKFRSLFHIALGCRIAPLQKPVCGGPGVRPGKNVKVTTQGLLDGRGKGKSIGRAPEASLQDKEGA
# procedure text: MCP-1 Receptor Binding Assay in THP-1 Cells;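 also: THP-1 is a human monocytic cell line, and nonspecific binding was defined with 1 µM unlabeled MCP-1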
# run parameters: 0.5 nM 125I labeled MCP-1, 2 hours at 30° C., read-out: Inhibition of MCP-1 Binding IC50 MCP1B
Overview of recorded log10 of IC50 for various compounds
experimental endpoint: log10 of IC50 (log10 of the value in nM)

compound	log10 of IC50
CCC(O)[C@H]1CC[C@@H](N2CC(NC(=O)CNc3nccc4ccc(C(F)(F)C(F)(F)F)cc34)C2)CC1 (some centres unmarked) [Example 170]	1.86
O=C(CNc1ncnc2ccc(C(F)(F)F)cc12)NC1CN([C@H]2CC[C@@H](C(O)C(F)(F)C(F)(F)C(F)(F)F)CC2)C1 (some centres unmarked) [Example 35]	2.43
C=C[C@H]1CC[C@@H](N2CC(NC(=O)CNc3ncnc4ccc(C(F)(F)F)cc34)C2)CC1 [Example 9]	0.95
CCCN(C=O)[C@H]1CC[C@@H](N2CC(NC(=O)CNc3ncnc4ccc(C(F)(F)F)cc34)C2)CC1 [Example 51]	1.57
O=C(CNc1ncnc2ccc(C(F)(F)F)cc12)NC1CN([C@H]2CC[C@@H](C(O)C3CC3)CC2)C1 (some centres unmarked) [Example 3]	1.34
C=CCC(O)(CC=C)[C@H]1CC[C@@H](N2CC(NC(=O)CNc3ncnc4ccc(C(F)(F)F)cc34)C2)CC1 [Example 31]	2.48
CC(C)(C)C(O)[C@H]1CC[C@@H](N2CC(NC(=O)CNc3ncnc4ccc(C(F)(F)F)cc34)C2)CC1 (some centres unmarked) [Example 98]	2.88
CCCC(O)[C@H]1CC[C@@H](N2CC(NC(=O)CNc3ncnc4ccc(C(F)(F)F)cc34)C2)CC1 (some centres unmarked) [Example 90]	1.11
O=C(CNc1cc(C(F)(F)F)nc2ccc(C(F)(F)F)cc12)NC1CN([C@H]2CC[C@@H](n3ccccc3=O)CC2)C1 [Example 59]	2.11
C=CCC(O)[C@H]1CC[C@@H](N2CC(NC(=O)CNc3ncnc4ccc(C(F)(F)F)cc34)C2)CC1 (some centres unmarked) [Example 91]	1.20
O=C(CNc1ncnc2ccc(C(F)(F)F)cc12)NC1CN([C@H]2CC[C@@H](C(O)C3CCCC3)CC2)C1 (some centres unmarked) [Example 94]	1.38

Data provenance: patent US9062048B2
